molecular target: MAST1, Q9Y2H9; assay: holdup assay; set-up: key: below the threshold = too weak to quantify, mostly under pKd 3.1 to 4; details: plain residues with an end cap or a label only (N-terminal biotin on a linker: ado-ado)
Sequence (Q9Y2H9 962-1065): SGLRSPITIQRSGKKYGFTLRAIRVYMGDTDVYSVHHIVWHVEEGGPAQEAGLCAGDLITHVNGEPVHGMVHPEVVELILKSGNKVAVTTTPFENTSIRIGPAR
experimental endpoint: pKd

[[record]]
binder = "KAEEKPPSKV [SCN4B, Q8IWT1]"
recorded_measurement = 3.69

[[record]]
binder = "VYEVPVETKF [SLC26A3, P40879]"
recorded_measurement = 5.07

[[record]]
binder = "QLGSPTADLA [SIPA1, Q96FS4]"
recorded_measurement = 3.84

[[record]]
binder = "TNSKQGETTV [FZD1, Q9UP38]"
recorded_measurement = 4.32

[[record]]
binder = "KPDKQEEFYA [SDC3, O75056]"
recorded_measurement = 3.64

[[record]]
binder = "SRPHTNETSL [MCC, P23508]"
recorded_measurement = 4.96

